subject.of.test: HiBit-WIZ fusion protein (Homo sapiens, UniProt O95785+Q96SW2)
Sequence (O95785 whole entry, the tested form may be a part): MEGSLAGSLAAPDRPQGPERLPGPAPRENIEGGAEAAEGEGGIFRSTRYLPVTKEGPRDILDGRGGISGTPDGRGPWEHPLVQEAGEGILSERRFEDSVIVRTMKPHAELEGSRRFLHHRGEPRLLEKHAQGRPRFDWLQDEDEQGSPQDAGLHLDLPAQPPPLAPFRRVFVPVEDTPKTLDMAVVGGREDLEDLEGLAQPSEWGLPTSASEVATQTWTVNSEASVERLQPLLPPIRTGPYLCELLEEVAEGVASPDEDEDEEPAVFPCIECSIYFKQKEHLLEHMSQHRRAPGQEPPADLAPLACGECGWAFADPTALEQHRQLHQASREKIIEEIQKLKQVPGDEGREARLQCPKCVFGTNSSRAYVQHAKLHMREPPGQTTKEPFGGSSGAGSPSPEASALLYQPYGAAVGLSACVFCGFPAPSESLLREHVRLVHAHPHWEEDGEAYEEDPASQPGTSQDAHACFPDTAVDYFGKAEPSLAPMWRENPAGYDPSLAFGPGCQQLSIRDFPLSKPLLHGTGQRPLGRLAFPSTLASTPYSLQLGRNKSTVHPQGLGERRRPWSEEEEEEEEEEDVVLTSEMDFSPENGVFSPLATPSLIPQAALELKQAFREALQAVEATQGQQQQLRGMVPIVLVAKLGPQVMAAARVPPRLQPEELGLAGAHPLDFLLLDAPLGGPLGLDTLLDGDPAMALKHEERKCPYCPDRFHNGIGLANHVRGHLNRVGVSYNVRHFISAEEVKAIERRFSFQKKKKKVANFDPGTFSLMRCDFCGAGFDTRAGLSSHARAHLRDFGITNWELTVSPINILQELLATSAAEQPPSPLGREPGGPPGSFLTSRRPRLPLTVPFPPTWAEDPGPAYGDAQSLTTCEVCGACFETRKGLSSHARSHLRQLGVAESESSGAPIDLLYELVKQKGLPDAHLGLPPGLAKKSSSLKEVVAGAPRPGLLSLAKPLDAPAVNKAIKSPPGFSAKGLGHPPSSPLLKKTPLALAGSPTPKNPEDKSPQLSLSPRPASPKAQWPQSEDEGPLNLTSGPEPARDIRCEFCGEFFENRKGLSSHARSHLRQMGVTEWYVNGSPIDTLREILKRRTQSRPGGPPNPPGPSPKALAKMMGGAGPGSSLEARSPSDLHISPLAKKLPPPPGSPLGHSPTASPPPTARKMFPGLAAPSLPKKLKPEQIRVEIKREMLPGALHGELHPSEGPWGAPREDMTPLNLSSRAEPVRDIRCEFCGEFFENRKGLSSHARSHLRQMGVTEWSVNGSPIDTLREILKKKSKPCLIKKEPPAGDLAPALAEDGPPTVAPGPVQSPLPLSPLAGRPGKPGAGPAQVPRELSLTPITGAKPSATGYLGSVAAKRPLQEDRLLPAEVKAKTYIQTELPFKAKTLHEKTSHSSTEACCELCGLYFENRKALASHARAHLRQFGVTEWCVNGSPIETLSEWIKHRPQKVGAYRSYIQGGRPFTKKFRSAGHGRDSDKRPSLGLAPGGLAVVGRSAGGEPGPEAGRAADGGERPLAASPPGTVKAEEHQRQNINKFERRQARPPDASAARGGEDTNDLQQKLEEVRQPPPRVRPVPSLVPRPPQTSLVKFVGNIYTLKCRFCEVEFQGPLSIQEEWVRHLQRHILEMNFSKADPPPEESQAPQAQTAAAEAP
Sequence (Q96SW2 whole entry, the tested form may be a part): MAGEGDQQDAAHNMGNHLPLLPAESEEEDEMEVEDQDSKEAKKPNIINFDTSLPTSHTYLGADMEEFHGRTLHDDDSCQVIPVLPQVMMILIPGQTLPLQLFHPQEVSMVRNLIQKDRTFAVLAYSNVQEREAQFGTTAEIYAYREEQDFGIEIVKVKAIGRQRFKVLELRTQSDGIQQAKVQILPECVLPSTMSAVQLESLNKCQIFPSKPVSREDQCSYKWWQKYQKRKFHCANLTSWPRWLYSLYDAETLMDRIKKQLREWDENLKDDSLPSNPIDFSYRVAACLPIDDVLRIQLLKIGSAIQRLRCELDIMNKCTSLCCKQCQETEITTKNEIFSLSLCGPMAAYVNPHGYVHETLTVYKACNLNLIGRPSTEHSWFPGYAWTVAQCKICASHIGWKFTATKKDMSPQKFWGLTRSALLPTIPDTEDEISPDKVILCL
Sequence (Q16531 whole entry partner, the tested form may be a part): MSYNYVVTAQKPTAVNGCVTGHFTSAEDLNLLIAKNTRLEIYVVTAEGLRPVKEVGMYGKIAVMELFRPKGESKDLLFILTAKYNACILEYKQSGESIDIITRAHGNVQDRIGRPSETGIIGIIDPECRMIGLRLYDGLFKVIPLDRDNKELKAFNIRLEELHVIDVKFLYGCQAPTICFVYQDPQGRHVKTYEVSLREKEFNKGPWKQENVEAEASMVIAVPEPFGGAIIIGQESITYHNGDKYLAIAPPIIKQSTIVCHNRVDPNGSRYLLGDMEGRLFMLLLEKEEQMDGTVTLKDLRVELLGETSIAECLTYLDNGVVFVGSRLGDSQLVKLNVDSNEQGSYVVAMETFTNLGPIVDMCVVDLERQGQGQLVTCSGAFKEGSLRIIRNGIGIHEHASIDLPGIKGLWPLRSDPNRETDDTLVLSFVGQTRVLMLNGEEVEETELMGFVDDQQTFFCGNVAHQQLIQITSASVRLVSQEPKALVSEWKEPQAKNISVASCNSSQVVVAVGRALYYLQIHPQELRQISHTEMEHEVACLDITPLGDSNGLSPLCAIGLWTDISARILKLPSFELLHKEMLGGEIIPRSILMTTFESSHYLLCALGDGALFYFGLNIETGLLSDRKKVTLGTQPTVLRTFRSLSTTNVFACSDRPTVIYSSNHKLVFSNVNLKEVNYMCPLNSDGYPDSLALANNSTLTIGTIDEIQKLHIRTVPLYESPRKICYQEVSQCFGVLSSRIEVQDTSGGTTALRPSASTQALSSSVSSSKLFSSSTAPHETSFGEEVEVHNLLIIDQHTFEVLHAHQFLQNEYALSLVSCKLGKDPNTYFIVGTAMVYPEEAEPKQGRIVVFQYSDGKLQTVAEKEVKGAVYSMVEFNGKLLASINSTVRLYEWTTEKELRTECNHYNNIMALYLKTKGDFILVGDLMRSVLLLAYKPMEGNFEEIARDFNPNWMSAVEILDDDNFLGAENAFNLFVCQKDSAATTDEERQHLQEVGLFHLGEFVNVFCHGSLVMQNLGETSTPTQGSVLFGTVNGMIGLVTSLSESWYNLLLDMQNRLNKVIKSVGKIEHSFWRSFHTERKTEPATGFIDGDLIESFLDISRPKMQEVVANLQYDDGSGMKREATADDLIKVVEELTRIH
test.details: Quantification of WIZ protein levels in HiBit tag fusion protein assay (WIZ HiBit assay in 293T cells)
Format: cell-based
study.conditions: WIZ HiBit assay in 293T cells; 10-point, 5-fold dose response, highest concentration 25 μM, about 18 hours; read-out: WIZ AC50
# note: exactly 200 nM is not below, so it is rule not met; use rule met for DC50 strictly under it

>>> category_label("O=C1CCC(N2Cc3cc(OC[C@@H]4CCCCN4Cc4cccn4S(=O)(=O)c4ccccc4)ccc3C2=O)C(=O)N1 (some centres unmarked) [Compound I-50f]")
"rule not met"
>>> category_label("O=C1CCC(N2Cc3cc(OC[C@@H]4CCCCN4Cc4ccnc(N5CCOCC5)c4)ccc3C2=O)C(=O)N1 (some centres unmarked) [Compound I-50bn]")
"rule not met"
>>> category_label("CCN1CCN(c2ccc(F)cc2CN2CCCC[C@@H]2COc2ccc3c(c2)CN(C2CCC(=O)NC2=O)C3=O)CC1 (some centres unmarked)")
"rule met"
>>> category_label("O=C1CCC(N2Cc3cc(OC[C@@H]4CCCCN4Cc4ccc(-n5nccn5)cc4)ccc3C2=O)C(=O)N1 (some centres unmarked) [Compound I-50ai]")
"rule not met"
>>> category_label("CCN1CCOc2cccc(CN3CCCC[C@@H]3COc3ccc4c(c3)CN(C3CCC(=O)NC3=O)C4=O)c21 (some centres unmarked)")
"rule met"
>>> category_label("O=C1CCC(N2Cc3cc(OC[C@H]4CCCCN4Cc4ccc(N5CCN(CC6CC6)CC5)cc4)ccc3C2=O)C(=O)N1 (some centres unmarked)")
"rule not met"
>>> category_label("O=C1CCC(N2Cc3cc(OCC4CC(F)(F)CCN4)ccc3C2=O)C(=O)N1 (centres unmarked)")
"rule not met"
>>> category_label("O=C1CCC(N2Cc3cc(OC[C@H]4CCCCN4Cc4ncc[nH]4)ccc3C2=O)C(=O)N1 (some centres unmarked) [Compound I-50et]")
"rule not met"
>>> category_label("O=C1CCC(N2Cc3cc(OC[C@H]4CCCCN4Cc4cnn(Cc5ccccc5)c4)ccc3C2=O)C(=O)N1 (some centres unmarked) [Compound I-50bv]")
"rule met"
>>> category_label("O=C1CCC(N2Cc3cc(OC[C@H]4CCCCN4Cc4ccc(C5CCN(CC6COC6)CC5)cc4)ccc3C2=O)C(=O)N1 (some centres unmarked)")
"rule met"
>>> category_label("O=C1CCC(N2Cc3cc(OC[C@H]4CCCCN4Cc4ccc(C5CCN(CCF)CC5)cc4)ccc3C2=O)C(=O)N1 (some centres unmarked)")
"rule met"
>>> category_label("O=C1CCC(N2Cc3cc(OC[C@H]4CCCCN4Cc4ccc[nH]c4=O)ccc3C2=O)C(=O)N1 (some centres unmarked) [Compound I-50dp]")
"rule not met"
>>> category_label("COC1CCC(CN2CCCCC2C(C)Oc2ccc3c(c2)CN(C2CCC(=O)NC2=O)C3=O)CC1 (single isomer, unassigned)")
"rule not met"
>>> category_label("Cc1nnc(-c2ccc(CN3CCCC[C@@H]3COc3ccc4c(c3)CN(C3CCC(=O)NC3=O)C4=O)cc2)o1 (some centres unmarked) [Compound I-50dv]")
"rule not met"
